- Target Or System: Protein kinase C gamma type (Homo sapiens)
Attribute Measured: pIC50
Convention used: pIC50 is expressed as -log10 of the molar concentration.

# input Using the record for CN1C(=O)[C@@H](N2CCc3cn(CC4CCS(=O)(=O)CC4)nc3C2=O)COc2ccccc21 [TP-030n] , state its measured pIC50.
# output 6.00

* * *

- Target Or System: Phosphatidylinositol 4,5-bisphosphate 3-kinase catalytic subunit alpha isoform (Homo sapiens, UniProt P42336)
- Experiment Summary: PI3KCA(PI3ACGR1) Takeda global kinase panel
Attribute Measured: IC50 (nM)
Quick note: give the figure in nM, leave out the unit.

CN1C(=O)[C@@H](N2CCc3cn(CC4CCS(=O)(=O)CC4)nc3C2=O)COc2ccccc21 [TP-030n]	1000

# input Check the records and state IC50 for CN1C(=O)[C@@H](N2CCc3cn(Cc4ccccc4)nc3C2=O)COc2ccccc21 [TP-030-1]
# output 1000

* * *

- Target Or System: Mitogen-activated protein kinase kinase kinase 9 (Homo sapiens)
- Sequence (P80192 whole entry): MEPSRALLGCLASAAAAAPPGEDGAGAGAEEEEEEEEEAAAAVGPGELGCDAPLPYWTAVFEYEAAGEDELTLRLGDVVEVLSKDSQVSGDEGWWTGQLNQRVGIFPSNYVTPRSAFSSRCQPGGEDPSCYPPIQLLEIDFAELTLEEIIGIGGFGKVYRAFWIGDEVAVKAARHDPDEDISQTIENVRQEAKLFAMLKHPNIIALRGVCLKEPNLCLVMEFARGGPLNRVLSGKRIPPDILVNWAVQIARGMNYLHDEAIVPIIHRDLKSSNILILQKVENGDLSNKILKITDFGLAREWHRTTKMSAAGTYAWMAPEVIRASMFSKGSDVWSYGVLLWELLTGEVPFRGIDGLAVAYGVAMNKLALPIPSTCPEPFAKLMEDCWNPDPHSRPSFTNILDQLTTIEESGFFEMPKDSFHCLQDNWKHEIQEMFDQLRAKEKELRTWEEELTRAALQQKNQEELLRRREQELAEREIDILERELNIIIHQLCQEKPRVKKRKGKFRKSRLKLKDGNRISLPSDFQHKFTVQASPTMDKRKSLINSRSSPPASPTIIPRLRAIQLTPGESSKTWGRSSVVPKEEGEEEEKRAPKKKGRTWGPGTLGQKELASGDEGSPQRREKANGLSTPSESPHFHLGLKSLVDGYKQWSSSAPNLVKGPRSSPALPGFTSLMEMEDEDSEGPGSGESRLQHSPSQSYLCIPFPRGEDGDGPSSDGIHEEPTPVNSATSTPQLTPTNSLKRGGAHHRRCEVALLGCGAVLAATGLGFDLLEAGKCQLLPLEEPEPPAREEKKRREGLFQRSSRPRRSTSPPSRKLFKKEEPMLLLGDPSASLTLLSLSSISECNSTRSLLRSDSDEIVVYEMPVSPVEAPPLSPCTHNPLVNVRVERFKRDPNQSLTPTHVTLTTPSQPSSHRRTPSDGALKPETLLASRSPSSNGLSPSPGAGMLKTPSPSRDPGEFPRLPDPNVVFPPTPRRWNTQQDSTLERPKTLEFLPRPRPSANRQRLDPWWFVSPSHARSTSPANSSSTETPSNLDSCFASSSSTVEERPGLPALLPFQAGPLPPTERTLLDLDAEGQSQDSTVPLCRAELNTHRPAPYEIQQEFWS
- Experiment Summary: MLK1(M3K9LGF1) Takeda global kinase panel
Attribute Measured: IC50 (nM)
Express your answer in nM, writing the number without its unit.

CN1C(=O)[C@@H](N2CCc3cn(CC4CCS(=O)(=O)CC4)nc3C2=O)COc2ccccc21 [TP-030n]	1000

Now turn to the next compound.
# input Specify IC50 for CN1C(=O)[C@@H](N2CCc3cn(Cc4ccccc4)nc3C2=O)COc2ccccc21 [TP-030-1] and stop.
# output 1000

* * *

- Target Or System: L-type calcium channel, benzothiazepine site (Cav1.2 alpha-1C) (Homo sapiens, UniProt Q13936)
- Sequence (Q13936 whole entry): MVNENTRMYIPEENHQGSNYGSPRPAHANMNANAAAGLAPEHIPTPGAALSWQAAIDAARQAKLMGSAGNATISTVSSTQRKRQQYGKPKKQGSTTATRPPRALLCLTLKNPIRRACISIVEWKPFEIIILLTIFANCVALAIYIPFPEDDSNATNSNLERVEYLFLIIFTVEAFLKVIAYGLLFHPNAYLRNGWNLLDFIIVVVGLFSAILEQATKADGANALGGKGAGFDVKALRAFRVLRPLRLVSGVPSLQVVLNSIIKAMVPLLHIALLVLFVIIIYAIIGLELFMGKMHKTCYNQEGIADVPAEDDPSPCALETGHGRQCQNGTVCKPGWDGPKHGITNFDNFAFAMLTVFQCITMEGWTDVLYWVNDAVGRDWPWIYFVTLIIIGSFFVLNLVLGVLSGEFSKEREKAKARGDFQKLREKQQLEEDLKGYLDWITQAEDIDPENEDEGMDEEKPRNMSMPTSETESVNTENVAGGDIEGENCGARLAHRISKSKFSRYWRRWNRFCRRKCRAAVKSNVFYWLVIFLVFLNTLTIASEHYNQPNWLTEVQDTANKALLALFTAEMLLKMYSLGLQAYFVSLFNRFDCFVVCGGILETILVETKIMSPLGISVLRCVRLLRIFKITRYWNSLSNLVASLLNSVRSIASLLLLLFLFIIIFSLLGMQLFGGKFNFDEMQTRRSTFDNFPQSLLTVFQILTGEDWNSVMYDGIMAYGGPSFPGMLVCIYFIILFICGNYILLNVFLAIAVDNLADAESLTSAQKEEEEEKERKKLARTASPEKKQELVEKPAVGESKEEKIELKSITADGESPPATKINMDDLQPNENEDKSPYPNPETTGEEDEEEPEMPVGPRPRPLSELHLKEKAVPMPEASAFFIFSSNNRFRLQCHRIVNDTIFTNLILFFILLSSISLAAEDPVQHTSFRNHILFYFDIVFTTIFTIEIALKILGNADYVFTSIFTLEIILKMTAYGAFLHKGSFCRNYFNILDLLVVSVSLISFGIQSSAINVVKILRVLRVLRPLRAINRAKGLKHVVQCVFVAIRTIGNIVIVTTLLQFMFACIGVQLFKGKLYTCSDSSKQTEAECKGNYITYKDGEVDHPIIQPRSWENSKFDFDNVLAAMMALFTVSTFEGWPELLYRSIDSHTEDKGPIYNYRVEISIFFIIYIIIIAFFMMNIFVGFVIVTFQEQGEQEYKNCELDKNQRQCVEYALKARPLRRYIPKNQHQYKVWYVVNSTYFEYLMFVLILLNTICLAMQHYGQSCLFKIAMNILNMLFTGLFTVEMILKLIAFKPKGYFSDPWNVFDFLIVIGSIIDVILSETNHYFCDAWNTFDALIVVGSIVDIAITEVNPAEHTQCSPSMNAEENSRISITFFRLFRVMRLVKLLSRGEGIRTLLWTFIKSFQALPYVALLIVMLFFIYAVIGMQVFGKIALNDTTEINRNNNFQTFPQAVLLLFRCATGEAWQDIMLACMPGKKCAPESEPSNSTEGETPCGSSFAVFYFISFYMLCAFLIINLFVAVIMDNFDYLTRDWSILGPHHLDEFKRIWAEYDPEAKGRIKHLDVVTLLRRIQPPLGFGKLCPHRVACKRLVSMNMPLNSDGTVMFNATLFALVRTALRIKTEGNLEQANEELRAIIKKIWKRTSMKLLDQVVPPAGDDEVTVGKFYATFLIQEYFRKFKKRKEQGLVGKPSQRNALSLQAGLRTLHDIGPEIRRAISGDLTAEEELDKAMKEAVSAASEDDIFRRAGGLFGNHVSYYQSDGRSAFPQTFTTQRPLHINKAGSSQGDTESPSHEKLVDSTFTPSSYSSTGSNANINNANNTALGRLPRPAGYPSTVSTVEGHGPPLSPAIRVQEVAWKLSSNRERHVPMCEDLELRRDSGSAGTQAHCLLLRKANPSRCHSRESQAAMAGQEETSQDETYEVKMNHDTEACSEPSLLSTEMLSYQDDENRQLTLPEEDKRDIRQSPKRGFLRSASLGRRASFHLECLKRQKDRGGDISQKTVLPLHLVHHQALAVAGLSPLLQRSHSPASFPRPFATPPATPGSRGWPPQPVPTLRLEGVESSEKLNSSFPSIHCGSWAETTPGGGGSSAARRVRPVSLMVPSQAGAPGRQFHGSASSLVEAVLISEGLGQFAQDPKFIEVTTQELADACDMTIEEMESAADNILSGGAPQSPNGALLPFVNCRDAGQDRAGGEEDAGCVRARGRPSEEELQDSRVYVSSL
- Experiment Summary: Inhibition of Calcium Channel L-Type, Benzothiazepine at 10 µM in the Eurofins-Panlabs radioligand binding assay (Eurofins_assay_214510)
- Design: ligand concentration 2 nM, non-specific ligand with concentration 10 µM Diltiazem, incubation time 3h, incubation temperature 4 °C
- Condition Info: male, Wistar, rat, whole brain of rats, probe [3H] Diltiazem; compound concentration 10 uM; target entry is the homologue from another species
Attribute Measured: inhibition at 3 h, 10 µM

# input Input CN1C(=O)[C@@H](N2CCc3cn(CC4CCS(=O)(=O)CC4)nc3C2=O)COc2ccccc21 [TP-030n] , output reported inhibition at 3 h, 10 µM.
# output 2% (not active)

* * *

Listed here: compounds with reported IC50 for Wee1-like protein kinase 2 (Homo sapiens, UniProt P0C1S8).
Record the value in nM, omitting the unit from your answer.

CN1C(=O)[C@@H](N2CCc3cn(CC4CCS(=O)(=O)CC4)nc3C2=O)COc2ccccc21 [TP-030n]	1000

# input Enter recorded IC50 with Wee1-like protein kinase 2 (Homo sapiens, UniProt P0C1S8) for CN1C(=O)[C@@H](N2CCc3cn(Cc4ccccc4)nc3C2=O)COc2ccccc21 [TP-030-1] here.
# Sequence (P0C1S8 whole entry): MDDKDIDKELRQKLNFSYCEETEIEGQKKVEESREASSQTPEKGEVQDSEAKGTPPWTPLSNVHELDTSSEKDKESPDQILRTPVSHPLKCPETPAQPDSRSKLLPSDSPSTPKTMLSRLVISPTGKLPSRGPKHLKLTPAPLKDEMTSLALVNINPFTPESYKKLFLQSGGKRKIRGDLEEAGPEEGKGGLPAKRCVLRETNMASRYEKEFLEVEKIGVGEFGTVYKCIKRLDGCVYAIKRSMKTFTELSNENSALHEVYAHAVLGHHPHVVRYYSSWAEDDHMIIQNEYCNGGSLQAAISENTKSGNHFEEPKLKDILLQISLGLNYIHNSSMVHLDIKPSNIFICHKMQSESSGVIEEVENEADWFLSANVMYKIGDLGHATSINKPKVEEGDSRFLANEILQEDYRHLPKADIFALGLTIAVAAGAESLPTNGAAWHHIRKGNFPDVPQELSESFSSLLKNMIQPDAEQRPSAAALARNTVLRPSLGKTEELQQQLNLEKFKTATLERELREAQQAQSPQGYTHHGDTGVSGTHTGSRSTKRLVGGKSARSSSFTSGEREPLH
# output 1000

* * *

- Target Or System: RAC-alpha serine/threonine-protein kinase (Homo sapiens, UniProt P31749)
Attribute Measured: IC50 (nM)
Give just the number in nM; leave the unit off.

# input Using the record for CN1C(=O)[C@@H](N2CCc3cn(CC4CCS(=O)(=O)CC4)nc3C2=O)COc2ccccc21 [TP-030n] , state its measured IC50.
# output 1000

* * *

- Target Or System: Serine/threonine-protein kinase ULK3 (Homo sapiens)
- Sequence (Q6PHR2 whole entry): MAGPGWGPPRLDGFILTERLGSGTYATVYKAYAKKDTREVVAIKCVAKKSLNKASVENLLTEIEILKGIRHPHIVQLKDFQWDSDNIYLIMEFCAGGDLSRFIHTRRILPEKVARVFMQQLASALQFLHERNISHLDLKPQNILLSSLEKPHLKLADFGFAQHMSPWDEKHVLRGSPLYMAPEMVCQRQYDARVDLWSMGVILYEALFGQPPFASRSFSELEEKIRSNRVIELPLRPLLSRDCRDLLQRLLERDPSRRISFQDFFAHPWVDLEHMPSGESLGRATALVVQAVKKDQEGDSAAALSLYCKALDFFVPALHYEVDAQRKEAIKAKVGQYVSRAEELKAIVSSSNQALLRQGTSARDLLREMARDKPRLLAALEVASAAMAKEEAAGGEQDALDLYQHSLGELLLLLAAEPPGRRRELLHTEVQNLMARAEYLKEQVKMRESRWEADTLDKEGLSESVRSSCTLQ
Attribute Measured: IC50 (nM)
Unit nM implied. Number only.

# input Find the measured IC50 of CN1C(=O)[C@@H](N2CCc3cn(Cc4ccccc4)nc3C2=O)COc2ccccc21 [TP-030-1] and report it.
# output 1000

# input Please give measured IC50 of the following entry: CN1C(=O)[C@@H](N2CCc3cn(CC4CCS(=O)(=O)CC4)nc3C2=O)COc2ccccc21 [TP-030n]
# output 1000

* * *

Assay system Bone morphogenetic protein receptor type-1A (Homo sapiens, UniProt P36894); read-out recorded as IC50.

CN1C(=O)[C@@H](N2CCc3cn(CC4CCS(=O)(=O)CC4)nc3C2=O)COc2ccccc21 [TP-030n]	1000 nM

Next compound, IC50 to be filled in.
# input Entry CN1C(=O)[C@@H](N2CCc3cn(Cc4ccccc4)nc3C2=O)COc2ccccc21 needs its IC50 filled in; supply it.
# output 1000 nM

* * *

- Target Or System: voltage-gated sodium channel, site 2 (Rattus norvegicus, UniProt F1LQQ7+O08562+O88420+O88457+P04774+P04775+P08104+P15389+P15390+Q62968)
- Experiment Summary: Inhibition of Sodium Channel, Site 2 at 10 µM in the Eurofins-Panlabs radioligand binding assay (Eurofins_assay_279510)
- Format: protein assay
- Design: ligand concentration 5 nM, non-specific ligand with concentration 100 µM Veratridine, incubation time 60 min, incubation temperature 37 °C
- Condition Info: male, Wistar, whole brain (except cerebellum) membranes of rats, probe [3H] Batrachotoxinin, compound concentration 10 uM
Attribute Measured: inhibition at 60 min, 10 µM

# input Provide only the value of recorded inhibition at 60 min, 10 µM for CN1C(=O)[C@@H](N2CCc3cn(CC4CCS(=O)(=O)CC4)nc3C2=O)COc2ccccc21 [TP-030n]
# output 9% (not active)

* * *

Target sequence: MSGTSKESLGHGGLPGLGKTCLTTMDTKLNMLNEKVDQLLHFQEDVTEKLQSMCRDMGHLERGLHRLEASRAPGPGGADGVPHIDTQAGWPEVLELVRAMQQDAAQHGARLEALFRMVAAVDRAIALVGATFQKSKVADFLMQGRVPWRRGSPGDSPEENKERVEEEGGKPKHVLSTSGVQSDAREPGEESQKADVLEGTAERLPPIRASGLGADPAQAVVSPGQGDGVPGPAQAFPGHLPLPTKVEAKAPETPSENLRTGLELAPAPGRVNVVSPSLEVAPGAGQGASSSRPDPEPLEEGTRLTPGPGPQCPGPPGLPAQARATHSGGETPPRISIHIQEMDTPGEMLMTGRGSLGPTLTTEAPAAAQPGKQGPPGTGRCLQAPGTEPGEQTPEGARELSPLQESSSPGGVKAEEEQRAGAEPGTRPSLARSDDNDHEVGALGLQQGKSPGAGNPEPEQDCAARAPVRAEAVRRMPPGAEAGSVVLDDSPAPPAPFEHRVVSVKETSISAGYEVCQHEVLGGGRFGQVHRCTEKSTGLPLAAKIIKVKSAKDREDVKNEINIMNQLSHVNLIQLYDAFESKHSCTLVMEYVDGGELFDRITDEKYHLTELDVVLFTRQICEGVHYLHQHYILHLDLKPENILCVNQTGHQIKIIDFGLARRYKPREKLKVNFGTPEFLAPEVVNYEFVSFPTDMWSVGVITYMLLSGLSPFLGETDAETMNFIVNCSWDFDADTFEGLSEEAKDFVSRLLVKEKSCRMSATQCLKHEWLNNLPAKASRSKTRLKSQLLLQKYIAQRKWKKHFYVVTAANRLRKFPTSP
Attribute Measured: IC50 (nM)
Dear colleague, please return just the value in nM, with no unit written.

CN1C(=O)[C@@H](N2CCc3cn(CC4CCS(=O)(=O)CC4)nc3C2=O)COc2ccccc21 [TP-030n]	1000

# input Identify IC50 associated with the compound CN1C(=O)[C@@H](N2CCc3cn(Cc4ccccc4)nc3C2=O)COc2ccccc21
# output 1000

* * *

Entries with reported IC50 on Non-receptor tyrosine-protein kinase TYK2 (Homo sapiens, UniProt P29597)
Report the figure in nM without appending any unit label.

CN1C(=O)[C@@H](N2CCc3cn(Cc4ccccc4)nc3C2=O)COc2ccccc21	1000

Turning to the following compound.
# input Quote IC50 reported for CN1C(=O)[C@@H](N2CCc3cn(CC4CCS(=O)(=O)CC4)nc3C2=O)COc2ccccc21 [TP-030n] please.
# output 1000

* * *

// endpoint IC50 / system Eukaryotic translation initiation factor 2-alpha kinase 3 (Homo sapiens, UniProt Q9NZJ5)
Quick note: give the figure in µM, leave out the unit.

CN1C(=O)[C@@H](N2CCc3cn(CC4CCS(=O)(=O)CC4)nc3C2=O)COc2ccccc21 [TP-030n]	1

Let us examine a further case.
# input Name the value of IC50 reported for CN1C(=O)[C@@H](N2CCc3cn(Cc4ccccc4)nc3C2=O)COc2ccccc21 when tested on Eukaryotic translation initiation factor 2-alpha kinase 3 (Homo sapiens, UniProt Q9NZJ5).
# Sequence (Q9NZJ5 whole entry): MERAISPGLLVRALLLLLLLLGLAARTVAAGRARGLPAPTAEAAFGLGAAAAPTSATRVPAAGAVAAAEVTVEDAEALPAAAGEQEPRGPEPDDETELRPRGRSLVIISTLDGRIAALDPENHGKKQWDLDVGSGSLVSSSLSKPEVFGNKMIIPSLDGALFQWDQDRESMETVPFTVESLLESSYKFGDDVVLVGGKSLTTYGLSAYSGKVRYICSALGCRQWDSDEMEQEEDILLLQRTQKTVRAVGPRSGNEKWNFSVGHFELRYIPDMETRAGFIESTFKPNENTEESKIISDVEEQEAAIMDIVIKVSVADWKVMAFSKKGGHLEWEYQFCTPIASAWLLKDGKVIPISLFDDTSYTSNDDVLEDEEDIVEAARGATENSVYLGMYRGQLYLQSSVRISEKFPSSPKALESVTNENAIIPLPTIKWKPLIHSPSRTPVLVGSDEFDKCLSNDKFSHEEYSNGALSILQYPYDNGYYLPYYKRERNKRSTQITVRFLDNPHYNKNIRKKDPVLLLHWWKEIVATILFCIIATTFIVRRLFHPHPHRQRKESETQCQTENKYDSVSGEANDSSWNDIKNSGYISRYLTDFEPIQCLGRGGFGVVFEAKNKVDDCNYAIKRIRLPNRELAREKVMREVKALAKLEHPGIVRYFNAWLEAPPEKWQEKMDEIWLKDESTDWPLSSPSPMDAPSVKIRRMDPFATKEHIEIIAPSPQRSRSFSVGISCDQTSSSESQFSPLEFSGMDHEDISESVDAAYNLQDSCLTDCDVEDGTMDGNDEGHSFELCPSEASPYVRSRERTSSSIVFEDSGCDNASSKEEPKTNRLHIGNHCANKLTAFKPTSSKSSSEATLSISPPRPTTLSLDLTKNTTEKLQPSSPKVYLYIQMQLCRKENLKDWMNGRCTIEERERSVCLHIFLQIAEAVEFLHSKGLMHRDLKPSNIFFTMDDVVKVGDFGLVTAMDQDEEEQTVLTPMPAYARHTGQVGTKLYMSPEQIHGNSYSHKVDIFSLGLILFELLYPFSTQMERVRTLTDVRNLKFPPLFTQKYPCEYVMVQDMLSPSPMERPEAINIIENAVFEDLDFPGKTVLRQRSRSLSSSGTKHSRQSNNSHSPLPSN
# output 1
